What follows is a collection of IC50 values obtained with purified PDE1A enzyme (Homo sapiens, UniProt P54750).
Metric name: IC50

> print(dat)
                                    compound  value.observed
 1  CCCc1nn(C)c2c(=O)[nH]c(N(Cc3cccc(N4CCOCC4)c3)CC(C)CC)nc12 (centres unmarked)        < 100 nM
 2  CCCc1nn(C)c2c(=O)[nH]c(NCc3cccc(-n4cccc4)c3)nc12   101 to 500 nM
 3  CC(C)CN(C)c1nc2c(C(C)(C)C)nn(C)c2c(=O)[nH]1        < 100 nM
 4  CCCc1nn(C)c2c(=O)[nH]c(N(C)Cc3ccc(-c4cncnc4)cc3)nc12   101 to 500 nM
 5  CCCc1nn(C)c2c(=O)[nH]c(NCc3c(C)nn(Cc4ccccc4)c3C)nc12   101 to 500 nM
 6  CCn1nc(C(C)(C)C)c2nc(N(Cc3cccc(N4CCOCC4)c3)CC(C)C)[nH]c(=O)c21        > 500 nM
 7  CCCc1nn(C)c2c(=O)[nH]c(NCc3ccccc3OCCN3CCOCC3)nc12        > 500 nM
 8  CCCc1nn(C)c2c(=O)[nH]c(N(C)Cc3sc(-c4ccccc4)nc3C)nc12        < 100 nM
 9  CCC(CC)CN(C)c1nc2c(C(C)(C)C)nn(C)c2c(=O)[nH]1        < 100 nM
10  CCCc1nn(C)c2c(=O)[nH]c(N(C)Cc3cccc(Cl)c3)nc12   101 to 500 nM
11  CN1CCN(c2cccc(CNc3nc4c(C(C)(C)C)nn(C)c4c(=O)[nH]3)c2)CC1        < 100 nM
12  CCCc1nn(C)c2c(=O)[nH]c(NCc3ccc(S(N)(=O)=O)cc3)nc12        > 500 nM
13  CCCc1nn(C)c2c(=O)[nH]c(NCc3cccc(N4CCCCC4)c3)nc12   101 to 500 nM
14  CCCc1nn(C)c2c(=O)[nH]c(N(C)Cc3cccc(C(F)(F)F)c3)nc12   101 to 500 nM

###

For UniProtKB P54750, measured IC50 is reported for the entries below.
Metric name: IC50

> print(dat)
                                   compound  metric.name  value.observed
1  CCCCN(Cc1ccc(Cl)c(Cl)c1)c1nc2c(CCC)nn(C)c2c(=O)[nH]1         IC50   101 to 500 nM
2  CCCc1nn(C)c2c(=O)[nH]c(NCc3c(-c4ccccc4)noc3C)nc12         IC50   101 to 500 nM
3   CCCN(CCC)c1nc2c(C3CC3)nn(C)c2c(=O)[nH]1         IC50   101 to 500 nM
4  CCCc1nn(C)c2c(=O)[nH]c(N3CCc4ccccc4C3)nc12         IC50   101 to 500 nM
5  CCCc1nn(C)c2c(=O)[nH]c(NCc3ccnc(N4CCOCC4)c3)nc12         IC50   101 to 500 nM
6  CCCc1nn(C)c2c(=O)[nH]c(NCc3ccc4c(c3)CCO4)nc12         IC50   101 to 500 nM
7  CCCC(C)CN(C)c1nc2c(C(C)(C)C)nn(C)c2c(=O)[nH]1 (stereo not drawn)         IC50        < 100 nM
8  CCCc1nn(C)c2c(=O)[nH]c(N(C)Cc3cccc(-c4csc(C)n4)c3)nc12         IC50   101 to 500 nM
9  CCCc1nn(C)c2c(=O)[nH]c(N3CCc4cc(F)ccc4C3)nc12         IC50   101 to 500 nM

###

Reported values: IC50 for purified PDE1A enzyme (Homo sapiens, UniProt P54750), one per item.
Metric name: IC50

> print(dat)
                                    compound  metric.name   value.observed
 1  CCCc1nn(C)c2c(=O)[nH]c(N(Cc3ccccc3)C(C)C)nc12 [Example 28]         IC50  0.101 to 0.5 µM
 2  CCCc1nn(C)c2c(=O)[nH]c(N(C)Cc3cc(-c4ccccc4)nn3C)nc12 [Example 38]         IC50         < 0.1 µM
 3  CCCc1nn(C)c2c(=O)[nH]c(N(C)Cc3nn(C)c4ccccc34)nc12 [Example 35]         IC50         > 0.5 µM
 4  CCCc1nn(C)c2c(=O)[nH]c(NCc3ccc4ccn(C)c4c3)nc12 [Example 69]         IC50  0.101 to 0.5 µM
 5  CCCC(C)CN(Cc1cccc(-n2cccn2)c1)c1nc2c(C(C)(C)C)nn(C)c2c(=O)[nH]1 (stereo not drawn) [Example 122]         IC50         < 0.1 µM
 6  CCCc1nn(C)c2c(=O)[nH]c(N(C)Cc3ccc(N4CCOCC4)cc3)nc12 [Example 61]         IC50  0.101 to 0.5 µM
 7  CCCc1nn(C)c2c(=O)[nH]c(N(C)Cc3cccc(N4CCOCC4)n3)nc12 [Example 42]         IC50  0.101 to 0.5 µM
 8  CCCN(CCC)c1nc2c(C3CCCC3)nn(C)c2c(=O)[nH]1 [Example 78]         IC50         < 0.1 µM
 9  CCCc1nn(C)c2c(=O)[nH]c(N(C)Cc3ccc(-c4ccncc4)cc3)nc12 [Example 40]         IC50         < 0.1 µM
10  CCCc1nn(C)c2c(=O)[nH]c(N(CCC(C)C)Cc3cccc(-n4cccn4)c3)nc12 [Example 106]         IC50         < 0.1 µM
11  CCCc1nn(C)c2c(=O)[nH]c(NCCc3ccc(F)cc3)nc12 [Example 87]         IC50         > 0.5 µM
12  CCCc1nn(C)c2c(=O)[nH]c(NCc3cccc(-n4cccn4)c3)nc12 [Example 63]         IC50  0.101 to 0.5 µM
13  CCCc1nn(C)c2c(=O)[nH]c(N(C)CCC(C)(C)C)nc12 [Example 110]         IC50         < 0.1 µM
14  CCC(C)CN(Cc1cccc(N2CCOCC2)c1)c1nc2c(C(C)(C)C)nn(C)c2c(=O)[nH]1 (stereo not drawn) [Example 117]         IC50         < 0.1 µM
15  CCCc1nn(C)c2c(=O)[nH]c(N(C)CCc3ccccc3)nc12 [Example 22]         IC50  0.101 to 0.5 µM
16  CCCc1nn(C)c2c(=O)[nH]c(NCc3cccc(F)c3)nc12 [Example 18]         IC50         > 0.5 µM
17  CC1CCCCN1c1nc2c(C3CCCC3)nn(C)c2c(=O)[nH]1 (stereo not drawn) [Example 84]         IC50         > 0.5 µM
18  CCCc1nn(C)c2c(=O)[nH]c(N(C)Cc3cccc(-c4ccncc4)c3)nc12 [Example 43]         IC50         < 0.1 µM

###

Molecular target: UniProt P54750
pIC50: −log10 of the molar value.
# reported pIC50; entries follow
Metric name: pIC50

> print(dat)
                                   compound  metric.name  value.observed
1  CCCc1nn(C)c2c(=O)[nH]c(N(C)Cc3ccc(Cl)cc3)nc12 [Example 17]        pIC50          > 7.00
2  CCCc1nn(C)c2c(=O)[nH]c(N(C)CCC)nc12 [Example 30]        pIC50    6.30 to 7.00
3  CCCc1nn(C)c2c(=O)[nH]c(NCc3cccc(OCCN4CCOCC4)c3)nc12 [Example 55]        pIC50    6.30 to 7.00
4  CCCc1nn(C)c2c(=O)[nH]c(NCCc3ccc(OCC)c(OCC)c3)nc12 [Example 82]        pIC50          < 6.30
5  CCCc1nn(C)c2c(=O)[nH]c(N(Cc3cccc(-n4cncn4)c3)CC(C)CC)nc12 (centres unmarked) [Example 116]        pIC50          > 7.00
6  Cn1nc(C(C)(C)C)c2nc(N(CCC(C)(C)C)Cc3cccc(N4CCOCC4)c3)[nH]c(=O)c21 [Example 103]        pIC50          > 7.00
7  CCCc1nn(C)c2c(=O)[nH]c(NCc3ccc(N4CCN(C)CC4)cc3)nc12 [Example 6]        pIC50          < 6.30
8  CCCc1nn(C)c2c(=O)[nH]c(N(CCC)CCc3ccc(Cl)cc3)nc12 [Example 75]        pIC50    6.30 to 7.00
